- Assay text: Biodistribution in male ddY mouse pancreas administered intravenously and measured at 2 mins postinjection by gamma counter analysis
- Type: ADME, organism-based
- Reported conditions: in vivo, iv
Value type: Drug uptake (% ID/g)

> print(dat)
                           smiles.structure   value.type  assay.result
1  Cc1ccc(-n2nccn2)c(C(=O)N2CCCN(c3nc4ccc([18F])cc4s3)C[C@@H]2C)c1  Drug uptake          5.89
2  C[C@H]1CN(c2nc3ccccc3s2)CCCN1C(=O)c1cc([18F])ccc1-n1nccn1  Drug uptake          7.16
3  C[C@H]1CN(c2nc3ccc(F)cc3s2)CCCN1C(=O)c1cc([18F])ccc1-n1nccn1  Drug uptake           5.3
4  Cc1ccc(-n2nccn2)c(C(=O)N2CCCN(c3nc4cc([18F])ccc4s3)C[C@@H]2C)c1  Drug uptake          8.33

###

- Study system: Orexin/Hypocretin receptor type 1 (Homo sapiens)
- Sequence (O43613 whole entry): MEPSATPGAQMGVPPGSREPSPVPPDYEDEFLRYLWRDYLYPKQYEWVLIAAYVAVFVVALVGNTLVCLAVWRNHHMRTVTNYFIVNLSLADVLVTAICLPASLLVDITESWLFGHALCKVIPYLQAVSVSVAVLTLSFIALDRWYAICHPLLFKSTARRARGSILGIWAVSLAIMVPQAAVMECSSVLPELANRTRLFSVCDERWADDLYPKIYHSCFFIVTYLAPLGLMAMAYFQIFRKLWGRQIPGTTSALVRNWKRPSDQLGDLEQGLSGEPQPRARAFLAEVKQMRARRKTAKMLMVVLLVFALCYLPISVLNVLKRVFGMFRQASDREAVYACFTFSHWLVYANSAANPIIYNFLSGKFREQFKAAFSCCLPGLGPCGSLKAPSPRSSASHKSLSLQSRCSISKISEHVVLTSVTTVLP
- Assay text: Displacement of […]5IBOM from OX1R (unknown origin) transfected in CHO cells assessed as inhibition constant incubated for 1.5 hrs by automated gamma-counter analysis
pKi: −log10 of the molar value.
Value type: pKi

> print(dat)
                            smiles.structure  value.type  assay.result
 1  Cc1ccc(-n2nccn2)c(C(=O)N2CCCN(c3nc4cc(F)ccc4s3)C[C@@H]2C)c1         pKi          8.94
 2  Cc1ccc(-n2nccn2)c(C(=O)N2CCCN(c3nc4cc(F)ccc4o3)C[C@@H]2C)c1         pKi          8.63
 3  Cc1ccc2nc(N3CCCN(C(=O)c4cc(F)ccc4-n4nccn4)[C@@H](C)C3)sc2c1         pKi          8.13
 4  C[C@H]1CN(c2nc3ccc(F)cc3s2)CCCN1C(=O)c1cc(F)ccc1-n1nccn1         pKi          8.72
 5  C[C@H]1CN(c2nc3ccc(F)cc3s2)CCCN1C(=O)c1ccccc1-n1nccn1         pKi          9.19
 6  Cc1ccc(-n2nccn2)c(C(=O)N2CCCN(c3nc4cc(Cl)ccc4o3)C[C@@H]2C)c1         pKi          8.95
 7  C[C@H]1CN(c2nc3ccccc3s2)CCCN1C(=O)c1cc(F)ccc1-n1nccn1         pKi          8.63
 8  Cc1ccc(-n2nccn2)c(C(=O)N2CCCN(c3nc4ccc(F)cc4s3)C[C@@H]2C)c1         pKi          8.67
 9  Cc1ccc(-n2nccn2)c(C(=O)N2CCCN(c3nc4ccc(F)cc4o3)C[C@@H]2C)c1         pKi          7.75
10  C[C@H]1CN(c2nc3ccc(F)cc3s2)CCCN1C(=O)c1cc(C(F)(F)F)ccc1-n1nccn1         pKi          8.18

###

- Assay text: Biodistribution in male ddY mouse stomach administered intravenously and measured per organ at 30 mins postinjection by gamma counter analysis
- Format: ADME, organism-based
- Reported conditions: in vivo, iv, 0.5 h
// reported Drug uptake per item
Value type: Drug uptake (%ID)

> print(dat)
                           smiles.structure   value.type  assay.result
1  C[C@H]1CN(c2nc3ccc(F)cc3s2)CCCN1C(=O)c1cc([18F])ccc1-n1nccn1  Drug uptake          1.18
2  C[C@H]1CN(c2nc3ccccc3s2)CCCN1C(=O)c1cc([18F])ccc1-n1nccn1  Drug uptake          2.39
3  Cc1ccc(-n2nccn2)c(C(=O)N2CCCN(c3nc4ccc([18F])cc4s3)C[C@@H]2C)c1  Drug uptake          1.35
4  Cc1ccc(-n2nccn2)c(C(=O)N2CCCN(c3nc4cc([18F])ccc4s3)C[C@@H]2C)c1  Drug uptake          1.58
